// data source = PubChem BioAssay AID2060493

System: 616215-338-R-J1-PDC tumor spheroids, viability
Experiment: Anticancer human tumor 616215-338-R-J1-PDC patient-derived colon adenocarcinoma cell line growth inhibition [GQUAD]
Details: second compound 0.1 µM; first compound 1 µM; stronger effect = lower value; spheroids with HUVEC and MSC
Measured quantity: viability, T/C (%)
The reply should be a number in %, with the unit left off.

Please report the recorded viability, T/C for CC(C)n1c(=O)n(C)c2cnc3cc(F)c(-c4ccc(OCCCN5CCCCC5)nc4)cc3c21 + CN(C)c1ccc(Nc2c3ccc(NC(=O)CCN4CCCC4)cc3nc3cc(NC(=O)CCN4CCCC4)ccc23)cc1 . 111

If you can, please state the reported viability, T/C value of C#Cc1c(F)ccc2cc(O)cc(-c3ncc4c(N5CC6CCC(C5)N6)nc(OCC56CCCN5CC(F)C6)nc4c3F)c12 (stereo not given) + Cc1[nH]c2ccc(F)cc2c1-c1nc2c3cccnc3c3ncccc3c2[nH]1 . 113

Recorded viability, T/C of O=c1[nH]cc(F)c(=O)[nH]1 + Cc1[nH]c2ccc(F)cc2c1-c1nc2c3cccnc3c3ncccc3c2[nH]1 , please. 41.3

What viability, T/C value was documented for this compound, C=CCn1c(=O)c2cnc(Nc3ccc(N4CCN(C)CC4)cc3)nc2n1-c1cccc(C(C)(C)O)n1 + CN(C)c1ccc(Nc2c3ccc(NC(=O)CCN4CCCC4)cc3nc3cc(NC(=O)CCN4CCCC4)ccc23)cc1 ? 23.5

Look up viability, T/C for this compound: Nc1ccn(C2OC(CO)C(O)C2(F)F)c(=O)n1 (stereo not given) + Cc1cnc(CNC(=O)c2c(=O)c3ccc(N4CCCN(C)CC4)nc3n3c2sc2ccccc23)cn1 16.5

Entry O=c1[nH]cc(F)c(=O)[nH]1 + Cc1cnc(CNC(=O)c2c(=O)c3ccc(N4CCCN(C)CC4)nc3n3c2sc2ccccc23)cn1 : reported viability, T/C = ? 40.4

Which value of viability, T/C has been reported for Cc1cccc(N(C)C(=O)C2C(O)CCN2c2nc(C)cc(C(F)(F)F)c2C#N)c1 (stereo not given) + Cc1cnc(CNC(=O)c2c(=O)c3ccc(N4CCCN(C)CC4)nc3n3c2sc2ccccc23)cn1 in the records? 80.6

Dear colleague, I am looking for the recorded viability, T/C of the following compound: CCCS(=O)(=O)Nc1ccc(F)c(C(=O)c2c[nH]c3ncc(-c4ccc(Cl)cc4)cc23)c1F + CN(C)c1ccc(Nc2c3ccc(NC(=O)CCN4CCCC4)cc3nc3cc(NC(=O)CCN4CCCC4)ccc23)cc1 94.6

I would be grateful if you could share the reported viability, T/C for C#Cc1c(F)ccc2cc(O)cc(-c3ncc4c(N5CC6CCC(C5)N6)nc(OCC56CCCN5CC(F)C6)nc4c3F)c12 (stereo not given) + Cc1cnc(CNC(=O)c2c(=O)c3ccc(N4CCCN(C)CC4)nc3n3c2sc2ccccc23)cn1 . 40.2

Recorded viability, T/C for O=C(c1cc(Cc2n[nH]c(=O)c3ccccc23)ccc1F)N1CCN(C(=O)C2CC2)CC1 + CN(C)c1ccc(Nc2c3ccc(NC(=O)CCN4CCCC4)cc3nc3cc(NC(=O)CCN4CCCC4)ccc23)cc1 , please? 103

Which viability, T/C reading was recorded for the compound CC(=O)O[C@H]1C(=O)[C@@]2(C)[C@H]([C@H](OC(=O)c3ccccc3)[C@]3(O)C[C@H](OC(=O)[C@H](O)[C@@H](NC(=O)c4ccccc4)c4ccccc4)C(C)=C1C3(C)C)[C@]1(OC(C)=O)CO[C@@H]1C[C@@H]2O + CN(C)c1ccc(Nc2c3ccc(NC(=O)CCN4CCCC4)cc3nc3cc(NC(=O)CCN4CCCC4)ccc23)cc1 ? 14

// lookup viability, T/C for CC1COCCN1c1cc(-c2ccnn2C)c2ccnc(-c3ccn[nH]3)c2n1 (stereo not given) + Cc1[nH]c2ccc(F)cc2c1-c1nc2c3cccnc3c3ncccc3c2[nH]1 25.2

# input compound: COc1ncnc(C2CC2)c1-c1ncc2cnn(Cc3ccc(-c4nc(C(F)(F)F)cn4C(C)C)cc3)c2n1 + CN(C)c1ccc(Nc2c3ccc(NC(=O)CCN4CCCC4)cc3nc3cc(NC(=O)CCN4CCCC4)ccc23)cc1 ; wanted: its viability, T/C 101

Query (compound): C#Cc1c(F)ccc2cc(O)cc(-c3ncc4c(N5CC6CCC(C5)N6)nc(OCC56CCCN5CC(F)C6)nc4c3F)c12 (stereo not given) + CN(C)c1ccc(Nc2c3ccc(NC(=O)CCN4CCCC4)cc3nc3cc(NC(=O)CCN4CCCC4)ccc23)cc1 ; field requested: viability, T/C 111

Consider the compound shown here: CC1COCCN1c1cc(C2(S(C)(=N)=O)CC2)nc(-c2ccnc3[nH]ccc23)n1 (stereo not given) + Cc1[nH]c2ccc(F)cc2c1-c1nc2c3cccnc3c3ncccc3c2[nH]1 What is its recorded viability, T/C? 110

What measured viability, T/C goes with COc1cccc2c1C(=O)c1c(O)c3c(c(O)c1C2=O)CC(O)(C(=O)CO)CC3OC1CC(N)C(O)C(C)O1 (stereo not given) + CN(C)c1ccc(Nc2c3ccc(NC(=O)CCN4CCCC4)cc3nc3cc(NC(=O)CCN4CCCC4)ccc23)cc1 ? 41.3

Look at this compound and give its reported viability, T/C. Cc1cccc(N(C)C(=O)C2C(O)CCN2c2nc(C)cc(C(F)(F)F)c2C#N)c1 (stereo not given) + CN(C)c1ccc(Nc2c3ccc(NC(=O)CCN4CCCC4)cc3nc3cc(NC(=O)CCN4CCCC4)ccc23)cc1 101

I would be grateful if you could share the reported viability, T/C for COc1ncnc(C2CC2)c1-c1ncc2cnn(Cc3ccc(-c4nc(C(F)(F)F)cn4C(C)C)cc3)c2n1 + Cc1[nH]c2ccc(F)cc2c1-c1nc2c3cccnc3c3ncccc3c2[nH]1 . 98.2

// query viability, T/C value for entry CC1COCCN1c1cc(C2(O)CC3CCC(C2)O3)c2cnn(-c3ccn[nH]3)c2n1 (stereo not given) + Cc1cnc(CNC(=O)c2c(=O)c3ccc(N4CCCN(C)CC4)nc3n3c2sc2ccccc23)cn1 24.1

Query (compound): C=CC(=O)N1CCN(c2nc(=O)n(-c3c(C)ccnc3C(C)C)c3nc(-c4c(O)cccc4F)c(F)cc23)C(C)C1 (stereo not given) + Cc1[nH]c2ccc(F)cc2c1-c1nc2c3cccnc3c3ncccc3c2[nH]1 ; field requested: viability, T/C 96.9

---

Tested on: 616215-338-R-J1-PDC tumor spheroids, viability
Assay: Anticancer human tumor 616215-338-R-J1-PDC cell line growth inhibition [GQUAD];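 note: spheroids exposed to agents for 7 days before readout; percent viability relative to DMSO vehicle control wells taken as 100%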
Conditions: second compound 10 µM; first compound 0.316 µM; stronger effect = lower value; spheroids with HUVEC and MSC
Mark true (1) for viability, T/C under 50%, false (0) if at or over.

API: query returns whether the compound falls strictly under 50% in viability, T/C. Query: O=C(c1cc(Cc2n[nH]c(=O)c3ccccc23)ccc1F)N1CCN(C(=O)C2CC2)CC1 + CN(C)c1ccc(Nc2c3ccc(NC(=O)CCN4CCCC4)cc3nc3cc(NC(=O)CCN4CCCC4)ccc23)cc1 false (0)

Determine if COc1cc(C2c3cc4c(cc3C(OC3OC5COC(C)OC5C(O)C3O)C3COC(=O)C23)OCO4)cc(OC)c1O (stereo not given) + CN(C)c1ccc(Nc2c3ccc(NC(=O)CCN4CCCC4)cc3nc3cc(NC(=O)CCN4CCCC4)ccc23)cc1 shows viability, T/C strictly lower than 50%. false (0)

# check: viability, T/C < 50% for Cc1cccc(N(C)C(=O)C2C(O)CCN2c2nc(C)cc(C(F)(F)F)c2C#N)c1 (stereo not given) + CN(C)c1ccc(Nc2c3ccc(NC(=O)CCN4CCCC4)cc3nc3cc(NC(=O)CCN4CCCC4)ccc23)cc1 false (0)

State whether 50% exceeds viability, T/C recorded for Cn1ncnc1[C@H]1c2n[nH]c(=O)c3cc(F)cc(c23)N[C@@H]1c1ccc(F)cc1 + Cc1[nH]c2ccc(F)cc2c1-c1nc2c3cccnc3c3ncccc3c2[nH]1 . false (0)

Strictly below 50% in viability, T/C? CC(=O)O[C@H]1C(=O)[C@@]2(C)[C@H]([C@H](OC(=O)c3ccccc3)[C@]3(O)C[C@H](OC(=O)[C@H](O)[C@@H](NC(=O)c4ccccc4)c4ccccc4)C(C)=C1C3(C)C)[C@]1(OC(C)=O)CO[C@@H]1C[C@@H]2O + Cc1cnc(CNC(=O)c2c(=O)c3ccc(N4CCCN(C)CC4)nc3n3c2sc2ccccc23)cn1 true (1)

Given O=C(c1cc(Cc2n[nH]c(=O)c3ccccc23)ccc1F)N1CCN(C(=O)C2CC2)CC1 + Cc1[nH]c2ccc(F)cc2c1-c1nc2c3cccnc3c3ncccc3c2[nH]1 , is recorded viability, T/C strictly lower than 50%? false (0)

Say whether its viability, T/C is strictly beneath 50%. Entry: Cc1[nH]c2ccccc2c1CCNCc1ccc(/C=C/C(=O)NO)cc1 + Cc1[nH]c2ccc(F)cc2c1-c1nc2c3cccnc3c3ncccc3c2[nH]1 true (1)

A record lists C#Cc1c(F)ccc2cc(O)cc(-c3ncc4c(N5CC6CCC(C5)N6)nc(OCC56CCCN5CC(F)C6)nc4c3F)c12 (stereo not given) + Cc1[nH]c2ccc(F)cc2c1-c1nc2c3cccnc3c3ncccc3c2[nH]1 . Is its viability, T/C below 50%? false (0)

Is viability, T/C strictly under 50% for the entry O=c1[nH]cc(F)c(=O)[nH]1 + CN(C)c1ccc(Nc2c3ccc(NC(=O)CCN4CCCC4)cc3nc3cc(NC(=O)CCN4CCCC4)ccc23)cc1 ? false (0)

Field: below-cutoff. Rule: recorded viability, T/C strictly less than 50%. Subject: CC(C)(O)C1CCC(Nc2ccc3ncc(-c4cccc(C(F)(F)F)c4)n3n2)CC1 (stereo not given) + Cc1[nH]c2ccc(F)cc2c1-c1nc2c3cccnc3c3ncccc3c2[nH]1 false (0)
